Parameter: % increase apoAI HDL. Scope: all listed entries.
Test system: HepG2 cells
Assay: Cell culture assay and ELISA for apoAI HDL increase in HepG2 cells
Type: cell-based, human
measurementName: % increase apoAI HDL

molecule	measurementName	recordedValue
CC(C)(Sc1cc(C(C)(C)C)c(O)c(C(C)(C)C)c1)Sc1cc(C(C)(C)C)c(OC(=O)CCCC(=O)O)c(C(C)(C)C)c1 [Compound A]	% increase apoAI HDL	33%
CC(C)(Sc1cc(C(C)(C)C)c(O)c(C(C)(C)C)c1)Sc1cc(C(C)(C)C)c(O)c(C(C)(C)C)c1 [Probucol, reference compound]	% increase apoAI HDL	−21%
CC(C)(Sc1cc(C(C)(C)C)c(O)c(C(C)(C)C)c1)Sc1cc(C(C)(C)C)c(OC(=O)CCCOS(=O)(=O)[O-])c(C(C)(C)C)c1.[Na+] [Compound B]	% increase apoAI HDL	26%
COC(=O)CCCC(=O)Oc1c(C(C)(C)C)cc(SC(C)(C)Sc2cc(C(C)(C)C)c(O)c(C(C)(C)C)c2)cc1C(C)(C)C [Compound D]	% increase apoAI HDL	27%
CC(C)(Sc1cc(C(C)(C)C)c(O)c(C(C)(C)C)c1)Sc1cc(C(C)(C)C)c(OC(=O)COCC(=O)O)c(C(C)(C)C)c1 [Compound C]	% increase apoAI HDL	47%
